assay remarks: Effect of smoking on pharmacokinetics of tasimelteon and metabolites
Format: in vivo, human
Set-up: concentration or dose not given beside the values
study conditions: human, in vivo, Smokers
assay metric: AUC(0-inf) (ng·h/mL)

I: CCC(=O)NC[C@@H]1C[C@H]1c1cccc(O)c1CC(=O)O
II: CCC(=O)NC[C@@H]1C[C@H]1c1cccc(O)c1CCO
# compare AUC(0-inf) for I vs II ; return the one with the smaller value Answer with the label corresponding to your selection.
II
(II: 124 ng·h/mL, I: 315 ng·h/mL)

----------
assay remarks: Effect of smoking on pharmacokinetics of tasimelteon and metabolites
Assay type: in vivo, human
study conditions: human, in vivo, Smokers (10 or more cigarettes per day); read-out: Cmax
Description: Smokers were defined as those smoking 10 or more cigarettes per day. Non-smokers were defined as those smoking no cigarettes per day.
assay metric: Cmax (ng/mL)

a: CCC(=O)NC[C@@H]1C[C@H]1c1cccc(O)c1CCO
b: CCC(=O)NC[C@@H]1C[C@H]1c1cccc(O)c1CC(=O)O
# compare Cmax for a vs b ; return the one with the smaller value Answer with the label corresponding to your selection.
a
(a: 46.2 ng/mL, b: 230 ng/mL)

----------
assay remarks: Effect of smoking on pharmacokinetics of tasimelteon and metabolites
Type: in vivo, human
study conditions: human, in vivo, Smokers; read-out: Tmax
assay metric: Tmax (min)

smiles text: CCC(=O)NC[C@@H]1C[C@H]1c1cccc(O)c1CCO
unit spec: min
Tmax: 60

smiles text: CCC(=O)NC[C@@H]1C[C@H]1c1cccc(O)c1CC(=O)O
unit spec: min
Tmax: 45
